System: human liver adenocarcinoma cells (SK-HEP-1)
Assay: transwell migration assay, SK-HEP-1 cells
Type: cell-based
Conditions: SK-HEP-1 transwell migration, 10 μM, 24 hours; control group 1 782 ± 108, control group 2 768 ± 86
Ends that are not written are not given here. PEG = not defined here
endpointLabel: Number of cells (mean ± SD, P), migrated cells

1. N24: SEQ ID NO: 1 with substitution A7R, deletion of positions 1-2 and of position 18 (VRFLRKENVTQDAED); 265 ± 24,****
2. N25: SEQ ID NO: 1 with substitution N18R and addition of two amino acids at the carboxyl terminal (YRVRFLAKENVTQDAEDRCT); 58 ± 15,****
3. N13: SEQ ID NO: 1 with deletion of positions 15-18 and positions 1-5 (LAKENVTQD); 25 ± 12,****
4. N52: SEQ ID NO: 1 with N18R, addition of two amino acids and PEG modification at the carboxyl terminal (YRVRFLAKENVTQDAEDRCT-{PEG}; reading uncertain); 318 ± 37,***
5. N50: SEQ ID NO: 1 with N18R, addition of 2 amino acid at the carboxyl terminal, PEG modification at the amino terminal ({PEG}-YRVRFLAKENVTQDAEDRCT; reading uncertain); 192 ± 16,****
6. N39: SEQ ID NO: 1 with addition of two amino acids and PEG modification at the carboxyl terminal (YRVRFLAKENVTQDAEDNTC-{PEG}; reading uncertain); 261 ± 25,****
7. N28: SEQ ID NO: 1 with deletion of positions 1-2 and 18 and PEG modification at the amino terminal ({PEG}-VRFLAKENVTQDAED; reading uncertain); 51 ± 25,****
8. N35: SEQ ID NO: 1 with A15R, addition of one amino acid and PEG modification at the carboxyl terminal (YRVRFLAKENVTQDREDNC-{PEG}; reading uncertain); 315 ± 36,***
9. N40: SEQ ID NO: 1 with deletion of positions 1-5 and 15-18, PEG at the amino terminal, two amino acids added at the carboxyl terminal ({PEG}-LAKENVTQDRC; reading uncertain); 290 ± 33,****
10. N5: SEQ ID NO: 1 with addition of one amino acid at the carboxyl terminal and deletion of positions 1-3 (RFLAKENVTQDAEDNC); 167 ± 12,****
11. N29: SEQ ID NO: 1 with deletion of positions 1-5 and 15-18 and PEG modification at the amino terminal ({PEG}-LAKENVTQD; reading uncertain); 254 ± 14,****
12. N32: SEQ ID NO: 1 with deletion of positions 1-3, addition of one amino acid and PEG modification at the carboxyl terminal (RFLAKENVTQDAEDNC-{PEG}; reading uncertain); 201 ± 13,****
13. N38: SEQ ID NO: 1 with one amino acid added at each terminal and PEG modification at the carboxyl terminal (FYRVRFLAKENVTQDAEDNC-{PEG}; reading uncertain); 380 ± 32,***
14. N18: SEQ ID NO: 1 with addition of one amino acid at the amino terminal and one at the carboxyl terminal (FYRVRFLAKENVTQDAEDNC); 96 ± 28,****
15. N34: SEQ ID NO: 1 with A15R, addition of one amino acid at the carboxyl terminal, PEG modification at the amino terminal ({PEG}-YRVRFLAKENVTQDREDNC; reading uncertain); 260 ± 32,****
16. N54: SEQ ID NO: 1 with A7R, addition of two amino acids and PEG modification at the carboxyl terminal (YRVRFLRKENVTQDAEDNTC-{PEG}; reading uncertain); 345 ± 3,****
17. N4: SEQ ID NO: 1 with deletion of positions 15-18 and positions 1-3 (RFLAKENVTQD); 357 ± 21,***
18. N37: SEQ ID NO: 1 with addition of two amino acids to the carboxyl terminal and PEG modification at the amino terminal ({PEG}-YRVRFLAKENVTQDAEDNCT; reading uncertain); 84 ± 7,****
19. N20: SEQ ID NO: 1 with addition of one amino acid at the amino terminal and deletion of position 18 (RYRVRFLAKENVTQDAED); 299 ± 35,****

====

System: human lung squamous carcinoma cells (NCI-H226)
Assay: scratch assay, migration of NCI-H226 cells
Format: cell-based
Details: NCI-H226, 10 μM, 48 hours; control group 65.31 ± 3.19
Ends that are not written are not given here. PEG = not defined here
Reported Migration rate (%) (mean ± SD, P) values for a set of substances
endpointLabel: Migration rate (%) (mean ± SD, P)

1) N11: SEQ ID NO: 1 with deletion of positions 15-18 and 1-3 and PEG modification at the amino terminal ({PEG}-RFLAKENVTQD; reading uncertain); 21.77 ± 5.03,*** %
2) N16: SEQ ID NO: 1 with substitution A7R and addition of one amino acid at the carboxyl terminus (YRVRFLRKENVTQDAEDNC); 21.10 ± 8.01,*** %
3) N12: SEQ ID NO: 1 with deletion of position 18 and positions 1-2 (VRFLAKENVTQDAED); 13.18 ± 6.31,*** %
4) N53: SEQ ID NO: 1 with A15R, one amino acid added at each terminal, PEG modification at the carboxyl terminal (FYRVRFLAKENVTQDREDNC-{PEG}; reading uncertain); 41.05 ± 4.60,** %
5) N35: SEQ ID NO: 1 with A15R, addition of one amino acid and PEG modification at the carboxyl terminal (YRVRFLAKENVTQDREDNC-{PEG}; reading uncertain); 42.47 ± 5.12,** %

====

Listing of entries alongside the reported Volume of tumor (mm^3) (mean ± SD).
System: human lung cancer cells (A549) subcutaneous xenograft
Assay: lung cancer subcutaneous xenograft animal model, intravenous injection
Format: in vivo, mice (BALB/c-nu/nu)
Details: intravenous 60 mg/kg once every other day, 20 days, control 3373.26 ± 581.44
Ends that are not written are not given here. PEG = not defined here
endpointLabel: Volume of tumor (mm^3) (mean ± SD)

1. N20: SEQ ID NO: 1 with addition of one amino acid at the amino terminal and deletion of position 18 (RYRVRFLAKENVTQDAED); 1072.16
2. N13: SEQ ID NO: 1 with deletion of positions 15-18 and positions 1-5 (LAKENVTQD); 1320.14
3. N16: SEQ ID NO: 1 with substitution A7R and addition of one amino acid at the carboxyl terminus (YRVRFLRKENVTQDAEDNC); 1442.4
4. N52: SEQ ID NO: 1 with N18R, addition of two amino acids and PEG modification at the carboxyl terminal (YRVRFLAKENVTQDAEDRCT-{PEG}; reading uncertain); 1425.2
5. N19: SEQ ID NO: 1 with deletion of positions 1-5 and 15-18 and addition of two amino acids at the carboxyl terminal (LAKENVTQDRC); 1235.44
6. N10: SEQ ID NO: 1 with deletion of positions 15-18 and 1-3 and PEG modification at the carboxyl terminal (RFLAKENVTQD-{PEG}; reading uncertain); 1211.62
7. N12: SEQ ID NO: 1 with deletion of position 18 and positions 1-2 (VRFLAKENVTQDAED); 1275.34
8. N42: SEQ ID NO: 1 with deletion of positions 1-5 and 15-18, PEG at the amino terminal, one amino acid added at the carboxyl terminal ({PEG}-LAKENVTQDR; reading uncertain); 1149.73
9. N8: SEQ ID NO: 1 with deletion of positions 15-18 and positions 3, 4 and 11 (YRFLAKENTQD); 1359.06
10. N32: SEQ ID NO: 1 with deletion of positions 1-3, addition of one amino acid and PEG modification at the carboxyl terminal (RFLAKENVTQDAEDNC-{PEG}; reading uncertain); 1630.6

====

Test system: human lung squamous carcinoma cells (NCI-H226)
Assay: scratch assay, migration of NCI-H226 cells
Type: cell-based
Conditions: NCI-H226, 10 μM, 48 hours; control group 65.31 ± 3.19
Protocol: In the scratch assay, the cell migration rate was negatively correlated with the inhibitory effect of the drug component on tumor cell migration ability. […] ImageJ software was used to count the migration distance of the cells, and the cell migration rate was calculated as: cell migration rate (%)=(width of original scratch−width of current scratch)/width of original scratch×100. […]
Ends that are not written are not given here. PEG = not defined here
endpointLabel: Migration rate (%) (mean ± SD, P)

1. N50: SEQ ID NO: 1 with N18R, addition of 2 amino acid at the carboxyl terminal, PEG modification at the amino terminal ({PEG}-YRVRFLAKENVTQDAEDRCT; reading uncertain); 33.20 ± 3.59,** %
2. N28: SEQ ID NO: 1 with deletion of positions 1-2 and 18 and PEG modification at the amino terminal ({PEG}-VRFLAKENVTQDAED; reading uncertain); 18.08 ± 7.38,*** %

====

Test system: human prostate cancer cells (22RV1)
Assay: scratch assay, migration of 22RV1 cells
Assay type: cell-based
Settings: 22RV1, 10 μM, 48 hours; control group 25.41 ± 5.01
Ends that are not written are not given here. PEG = not defined here
Reported values of Migration rate (%) (mean ± SD, P) for individual entries
endpointLabel: Migration rate (%) (mean ± SD, P)

1. N40: SEQ ID NO: 1 with deletion of positions 1-5 and 15-18, PEG at the amino terminal, two amino acids added at the carboxyl terminal ({PEG}-LAKENVTQDRC; reading uncertain); 6.65 ± 2.54,** %
2. N39: SEQ ID NO: 1 with addition of two amino acids and PEG modification at the carboxyl terminal (YRVRFLAKENVTQDAEDNTC-{PEG}; reading uncertain); 4.21 ± 2.81,** %
